MEASURE: melting point

Task item: Need melting point of `COC(=O)c1ccc(N)nc1` , thanks.
Reply: 159 to 160 °C

Task item: Need melting point of `Cc1cc(O)no1` , thanks.
Reply: 86.5 °C

Task item: Need melting point of `FC1(F)C(F)(F)C(F)(F)C1(F)F` , thanks.
Reply: -40.1 °C

Task item: Need melting point of `C=CCOC(=O)Nc1cc(O)cc(C(=O)O)c1` , thanks.
Reply: 194 to 197 °C

Task item: Need melting point of `Cc1cc(-n2c(=O)[nH]c(=O)n(C)c2=O)ccc1Oc1ccc(SC(F)(F)F)cc1` , thanks.
Reply: 194 °C

Task item: Need melting point of CC(=O)N1C(=O)N(C(C)=O)C2C1N(C(C)=O)C(=O)N2C(C)=O (configuration not stated) , thanks.
Reply: 234 to 238 °C

Task item: Need melting point of `O=C1C(=Cc2ccc(N(CCCl)CCCl)cc2)SC(=S)N1CN1CCOCC1` , thanks.
Reply: 164 °C

Task item: Need melting point of `Cn1c(=O)c2[nH]cnc2n(C)c1=O` , thanks.
Reply: 270 °C

Task item: Need melting point of CC12CCC(C(Br)=C(Br)C1=O)C2(C)C (configuration not stated) , thanks.
Reply: 103 °C

Task item: Need melting point of `COc1ccc(C=O)c(C)c1C` , thanks.
Reply: 53 °C

Task item: Need melting point of O=C(O)C1CCCO1 (configuration not stated) , thanks.
Reply: 21 °C

Task item: Need melting point of C=CC(C)(O)CCC1C(C)(O)CCC2C(C)(C)CCCC21C (configuration not stated) , thanks.
Reply: 97 °C

Task item: Need melting point of `CCOC(=O)CNc1nc(Cl)nc(NC(C)C)n1` , thanks.
Reply: 110 °C

Task item: Need melting point of `CC(=O)c1c(-c2ccc(Cl)cc2Cl)noc1C` , thanks.
Reply: 55 to 59 °C

Task item: Need melting point of CCN1CC2(COC)C(O)CC(OC)C34C5CC6(O)C(O)C5C(O)(C(O)C6OC)C(C(OC)C23)C14 (configuration not stated) , thanks.
Reply: 132 °C

Task item: Need melting point of `Cc1cc(C(=O)Cl)ccc1Br` , thanks.
Reply: 26 °C

Task item: Need melting point of `CCCCN(CCN(CCCC)C(=O)N1CCOCC1)C(=O)N1CCOCC1` , thanks.
Reply: 41.5 °C

Task item: Need melting point of `C[C@]12CCC(=O)C=C1CCC2=O` , thanks.
Reply: 55 to 64 °C

Task item: Need melting point of `O=c1n(Cl)c(=O)n(Cl)c(=O)n1Cl` , thanks.
Reply: 249 °C

Task item: Need melting point of `Clc1noc2ccccc12` , thanks.
Reply: 31 °C

Task item: Need melting point of `CCCCCCCCCC1CCCC1` , thanks.
Reply: -29 °C

Task item: Need melting point of `NC(=S)c1csc2ccccc12` , thanks.
Reply: 121 to 124 °C

Task item: Need melting point of `CCOC(=O)c1c(C)oc(NC(=O)Nc2cccc(C(F)(F)F)c2)c1C(=O)OCC` , thanks.
Reply: 153 to 155 °C

Task item: Need melting point of `C[C@]12CC[C@H]3O[C@H]3[C@@H]1CC[C@@H]1[C@@H]2CC[C@]2(C)C(=O)CC[C@@H]12` , thanks.
Reply: 158 °C

Task item: Need melting point of `Cc1ccc(-c2ccc(C=CC(=O)c3ccco3)o2)cc1` , thanks.
Reply: 110 to 111 °C

Task item: Need melting point of `Cc1ccc2nc(C)cc(C)c2c1` , thanks.
Reply: 68 °C

Task item: Need melting point of `Cc1c(C(N)=O)[nH]c2ccccc12` , thanks.
Reply: 170 to 172 °C

Task item: Need melting point of `CC(=O)Nc1cc(NC(C)=O)c([N+](=O)[O-])cc1[N+](=O)[O-]` , thanks.
Reply: 247 to 248 °C

Task item: Need melting point of `CCOc1ccc(N=C=S)cc1` , thanks.
Reply: 60 to 61 °C

Task item: Need melting point of `O=C(O)/C=C/C=C/C(=O)O` , thanks.
Reply: 301 °C

Task item: Need melting point of `O=[N+]([O-])c1cc([N+](=O)[O-])c(Cl)cc1Cl` , thanks.
Reply: 101 °C

Task item: Need melting point of CC1(C)C2CCC1(C)C(O)/C2=C\CC(=O)O (configuration not stated) , thanks.
Reply: 51 to 52 °C

Task item: Need melting point of `c1ccc(-c2nc(-c3ccccn3)nc(-c3ccccn3)n2)nc1` , thanks.
Reply: 250 °C

Task item: Need melting point of `N#Cc1ccccc1Oc1ccc(Cl)cc1Cl` , thanks.
Reply: 84 to 86 °C

Task item: Need melting point of `Cc1cc(Cl)cc([N+](=O)[O-])c1N` , thanks.
Reply: 126 to 132 °C

Task item: Need melting point of `Cc1cc(C(F)(F)F)n2nc(N)c(/N=N/c3ccc(Cl)cc3Cl)c2n1` , thanks.
Reply: 210 °C

Task item: Need melting point of CC12CCC(C(C(=O)Oc3ccccc3)C1)C2(C)C (configuration not stated) , thanks.
Reply: 41 °C

Task item: Need melting point of `CCCCc1ccc(O)cc1` , thanks.
Reply: 22 °C

Task item: Need melting point of CC(=O)C1(C)Cc2ccccc2C(=O)O1 (configuration not stated) , thanks.
Reply: 105 °C

Task item: Need melting point of O=C1O[C@H](C(Cl)(Cl)Cl)N2CCC[C@@H]12 (relative stereo) , thanks.
Reply: 110 °C

Task item: Need melting point of `O=C(O)c1cccc(CSc2cccs2)c1` , thanks.
Reply: 108 to 110 °C

Task item: Need melting point of `CCCC/C=C/CCCC` , thanks.
Reply: -73 °C

====

MEASURE: melting point

Task item: Need melting point of `N#Cc1ccc(Cn2ccnc2)cc1` , thanks.
Reply: 103 to 104 °C

Task item: Need melting point of `Cc1cc(-c2cc(C)n(C)n2)n[nH]1` , thanks.
Reply: 154 to 156 °C

Task item: Need melting point of `CSCC[C@H](NC(=O)OCC1c2ccccc2-c2ccccc21)C(=O)O` , thanks.
Reply: 132 to 136 °C

Task item: Need melting point of `Cc1c(C)c(N)c(C)c(C)c1N` , thanks.
Reply: 150 to 153 °C

Task item: Need melting point of `CC(C)(NC(=O)OCc1ccccc1)C(=O)O` , thanks.
Reply: 77 to 80 °C

Task item: Need melting point of `O=C(O)/C=C/c1c(F)cccc1F` , thanks.
Reply: 124 to 125 °C

Task item: Need melting point of `Cn1cccc1-c1nnc(S)n1-c1ccc(Cl)cc1Cl` , thanks.
Reply: 252 to 256 °C

Task item: Need melting point of `O=C(OCCc1cc([N+](=O)[O-])c(CCOC(=O)c2ccccc2)cc1[N+](=O)[O-])c1ccccc1` , thanks.
Reply: 157 to 158 °C

Task item: Need melting point of `CSC(=Nc1nccs1)SC` , thanks.
Reply: 194 to 195 °C

====

MEASURE: melting point

Task item: Need melting point of `CCCc1ccc(-c2ccccc2)cc1` , thanks.
Reply: 15 to 17 °C

Task item: Need melting point of `CC(=O)NCCc1c[nH]c2ccc(O)cc12` , thanks.
Reply: 120 to 122 °C

Task item: Need melting point of `CCOC(=O)c1c(-c2ccccc2)[nH]c2cc3[nH]c(-c4ccccc4)c(C(=O)OCC)c3cc12` , thanks.
Reply: > 140 °C

====

Think of 50 °C as a floor: if melting point stands on it or above, it is condition met; beneath it, condition not met.

Task item: hey, is melting point for this one >= 50 °C? `O=[N+]([O-])c1ccc(NN=Cc2cccc3c(Br)cccc23)c([N+](=O)[O-])c1`
Reply: condition met

Task item: hey, is melting point for this one >= 50 °C? `O=C(c1ccc(O)cc1)c1ccc(O)cc1`
Reply: condition met

Task item: hey, is melting point for this one >= 50 °C? `CC(C)(C)Oc1ccc(O)cc1`
Reply: condition met

Task item: hey, is melting point for this one >= 50 °C? `c1ccc(N=Nc2ccc(/N=N/c3ccc(N=Nc4ccccc4)cc3)cc2)cc1`
Reply: condition met

Task item: hey, is melting point for this one >= 50 °C? `Oc1ccc2cccc(Cl)c2c1`
Reply: condition met

Task item: hey, is melting point for this one >= 50 °C? CC12CCC(C(=CC(Cc3ccccc3)C(=O)O)C1=O)C2(C)C (configuration not stated)
Reply: condition met

Task item: hey, is melting point for this one >= 50 °C? CCC(C(=O)O)c1ccccc1 (configuration not stated)
Reply: condition not met

Task item: hey, is melting point for this one >= 50 °C? `CC=CCCl`
Reply: condition not met

Task item: hey, is melting point for this one >= 50 °C? `O=C=Nc1cc(Cl)ccc1Cl`
Reply: condition not met

Task item: hey, is melting point for this one >= 50 °C? `CCCCCCC=CCC(=O)O`
Reply: condition not met

Task item: hey, is melting point for this one >= 50 °C? `CC1=Nc2c(ccc3ccccc23)C1(C)C`
Reply: condition met

Task item: hey, is melting point for this one >= 50 °C? `FC(F)(F)C(F)(F)C(F)(F)C(F)(F)N(C(F)(F)C(F)(F)C(F)(F)C(F)(F)F)C(F)(F)C(F)(F)C(F)(F)C(F)(F)F`
Reply: condition not met

Task item: hey, is melting point for this one >= 50 °C? `O=C1CCCCCCCC1`
Reply: condition not met

Task item: hey, is melting point for this one >= 50 °C? `Clc1ccc2c(c1)oc1c(Cl)c(Cl)cc(Cl)c12`
Reply: condition met

Task item: hey, is melting point for this one >= 50 °C? `CC(C)COC(=O)CCCCC(=O)OCC(C)C`
Reply: condition not met

Task item: hey, is melting point for this one >= 50 °C? `CC(C)(O)C#Cc1ccccn1`
Reply: condition met

Task item: hey, is melting point for this one >= 50 °C? CCCCCC(O)c1ccc(O)c(O)c1 (configuration not stated)
Reply: condition met

All figures here come from a melting point compilation (Tetko et al.).
